target: MAGI2_5, Q86UL8; experiment: holdup assay; set-up: key: below the threshold = too weak to quantify, mostly under pKd 3.1 to 4; conditions: plain residues with an end cap or a label only (N-terminal biotin on a linker: ado-ado)
Sequence (Q86UL8 915-1017): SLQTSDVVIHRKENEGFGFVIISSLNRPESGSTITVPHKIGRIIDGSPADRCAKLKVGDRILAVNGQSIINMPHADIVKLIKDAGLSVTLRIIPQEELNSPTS
QUANTITY_KIND: pKd

-- ask Look up pKd: QRYPGNQTTC [CCL24, O00175]
-- reply below the threshold

-- ask Look up pKd: PKSNSSKEYV [CLDN7, O95471]
-- reply below the threshold

-- ask Look up pKd: ATKDKKITTV [EXOC4, Q96A65]
-- reply 3.63
